Origin of measurements: patent US20220274947A1

- Test system: Meloidogyne incognita
- Assay method text: Meloidogyne incognita test
- Type: in vivo
- Applied conditions: application rate 20 ppm, salad seedlings, after 14 days
Parameter: nematicidal activity (100% means no galls were found) (%)
One number for each entry, in %.

> print(dat)
                  compound.structure.string  measurement
1  C[C@H](NC(=O)c1cc(Cl)cc(C(F)(F)F)c1)c1ncnn1-c1cc([N+](=O)[O-])ccn1          100

Your task in this section: give nematicidal activity (100% means no galls were found) for each listed record.
1. CCOc1nc([C@H](C)NC(=O)c2cc(Cl)cc(Cl)c2)n(-c2ccc(C#N)cn2)n1
2. CCOc1nc([C@H](C)NC(=O)c2cc(C(F)(F)F)cc(C(F)(F)F)c2)n(-c2ccc(C#N)cn2)n1
3. C[C@H](NC(=O)c1cc(Cl)cc(OC(F)(F)F)c1)c1ncnn1-c1cc(NC(=O)C2CC2)ccn1
4. CC(C)c1nc([C@H](C)NC(=O)c2cc(Cl)cc(Br)c2)n(-c2ccc(C#N)cn2)n1

Solution:
1. 100
2. 90
3. 90
4. 90

Your task in this section: give nematicidal activity (100% means no galls were found) for each listed record.
1. CCOc1nc([C@H](C)NC(=O)c2cc(Cl)cc(C(F)(F)F)c2)n(-c2ccc(C#N)cn2)n1
2. CC(C)c1nc([C@H](C)NC(=O)c2cccc(Br)n2)n(-c2ccc(C#N)cn2)n1

Solution:
[90, 90]

###

- System: Spodoptera frugiperda
- Assay method text: Spodoptera frugiperda spray test
- Type: in vivo
- Applied conditions: in Zea mays, 168 h, read-out: activity (mortality)
Assign mortality at 100 g/ha to each entry below.
Remember to put the unit after the number in your answer.

Here's what some known entries look like.
> print(dat)
                                   compound  measurement
1  Cc1nc([C@H](C)NC(=O)c2cc(C(F)F)cc(C(F)F)c2)n(-c2ccc(C#N)cn2)n1 [II-114]          83%
2  C[C@H](NC(=O)c1cc(Cl)cc(C#N)c1)c1ncnn1-c1ccc(C#N)cn1 [II-57]         100%
3  C[C@H](NC(=O)c1cc(Cl)cc(C(F)(F)F)c1)c1ncnn1-c1ccc(C(=O)N(CC(F)(F)F)C2CC2)cn1 [II-70]         100%

Continue with the next compound.
Problem: mortality at 100 g/ha for Cc1nc([C@H](C)NC(=O)c2cc(OC(F)F)cc(C(F)F)c2)n(-c2ccc(C#N)cn2)n1 [II-113] ?
Solution: 100%

###

- Tested on: Myzus persicae
- Assay method text: Myzus persicae spray test
- Format: in vivo
- Applied conditions: in Brassica rapa, foliar, 120 h, read-out: activity (mortality), application rate 100 g/ha, spray, Chinese cabbage leaf disks, after 5 days
Assign mortality at 100 g/ha to each entry below.
Answers are plain numbers, in %.

> print(dat)
                  compound.structure.string              parameter  measurement
1  C[C@H](NC(=O)c1cc(C(F)F)cc(C(F)F)c1)c1ncnn1-c1ccc(C#N)cn1  mortality at 100 g/ha           90

Your task in this section: give mortality at 100 g/ha for each listed record.
1. Cc1nc([C@H](C)NC(=O)c2cc(F)cc(C#N)c2)n(-c2ccc(C#N)cn2)n1
2. CC(=O)N(C)c1ccc(-n2ncnc2[C@H](C)NC(=O)c2cc(Cl)cc(C(F)(F)F)c2)nc1

Solution:
90
90
